The values you see were collected from the supplement of paper PMC10567573.

B1: ZBTB22 (parent)
chain: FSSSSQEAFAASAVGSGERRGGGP

variants of: B1; test: protein stability index of a GFP-peptide fusion (GPS, HEK-293T) (PSI 1-6); higher = more stable; settings: c terminus: a fixed tail appended;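 also: lentivirally expressed fusions sorted by FACS into six bins by GFP to DsRed ratio, PSI derived from sequencing read proportions per bin multiplied by bin number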
RECORDED METRIC: protein stability index
# respond with the number and nothing more

Worked set:
FSSSSQEAFAASAVGSGERRFGGP [G21F] = 3.22
FSSSSQEAFAASFVGSGERRGGGP [A13F] = 2.64
FDSSSQEAFAASAVGSGERRGGGP [S2D] = 5.17
FSSSSQEAFAASYVGSGERRGGGP [A13Y] = 3.26
FSSSSQEAFAASAVGSGERRGGTP [G23T] = 3.27

// below: protein stability index requested for another variant
Problem: Let me know recorded protein stability index for FSSSIQEAFAASAVGSGERRGGGP [S5I] , thanks.
Solution: 3.62
